Catalogue of IC50 readings, one per entry.
# tgt: Transient receptor potential cation channel subfamily A member 1 (Homo sapiens, UniProt O75762)
# Sequence (O75762 whole entry): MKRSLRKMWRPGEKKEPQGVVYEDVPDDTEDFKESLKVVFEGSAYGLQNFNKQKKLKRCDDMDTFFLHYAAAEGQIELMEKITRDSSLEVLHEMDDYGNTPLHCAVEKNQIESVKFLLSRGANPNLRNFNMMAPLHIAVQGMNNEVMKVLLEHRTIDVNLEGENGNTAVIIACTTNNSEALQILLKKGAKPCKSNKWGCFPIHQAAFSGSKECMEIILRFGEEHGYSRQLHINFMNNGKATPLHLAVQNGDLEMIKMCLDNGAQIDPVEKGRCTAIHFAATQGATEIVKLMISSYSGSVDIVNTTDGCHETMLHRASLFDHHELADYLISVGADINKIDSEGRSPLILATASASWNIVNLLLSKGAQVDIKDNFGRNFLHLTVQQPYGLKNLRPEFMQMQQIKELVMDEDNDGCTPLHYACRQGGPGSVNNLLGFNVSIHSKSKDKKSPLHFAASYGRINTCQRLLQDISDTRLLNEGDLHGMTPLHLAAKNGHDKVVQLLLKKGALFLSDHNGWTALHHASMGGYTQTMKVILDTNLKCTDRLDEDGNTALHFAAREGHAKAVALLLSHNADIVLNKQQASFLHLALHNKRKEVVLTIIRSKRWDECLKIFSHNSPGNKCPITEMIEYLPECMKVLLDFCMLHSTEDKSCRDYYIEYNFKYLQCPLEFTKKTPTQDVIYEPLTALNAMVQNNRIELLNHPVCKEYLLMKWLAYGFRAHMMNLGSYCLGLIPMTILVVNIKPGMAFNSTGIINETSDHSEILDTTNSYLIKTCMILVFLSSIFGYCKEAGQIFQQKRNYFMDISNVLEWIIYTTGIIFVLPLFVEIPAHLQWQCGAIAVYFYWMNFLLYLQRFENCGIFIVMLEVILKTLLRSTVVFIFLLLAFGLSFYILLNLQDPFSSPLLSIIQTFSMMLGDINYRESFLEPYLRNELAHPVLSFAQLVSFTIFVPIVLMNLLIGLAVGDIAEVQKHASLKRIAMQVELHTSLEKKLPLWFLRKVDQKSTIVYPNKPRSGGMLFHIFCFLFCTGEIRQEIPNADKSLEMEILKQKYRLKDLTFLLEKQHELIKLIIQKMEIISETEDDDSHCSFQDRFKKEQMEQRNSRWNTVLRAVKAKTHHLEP
Give the value in nM but do not write nM after it.

Some compounds with recorded IC50:
Cc1cc(S(=O)(=O)N2[C@H](CO)CC[C@@H]2c2ccc(F)cc2)cc(Cl)c1F = 130
Cc1cc(S(=O)(=O)N2CC(F)(F)C[C@@H]2c2ccc(F)cc2)cc(C)c1F = 23
Cc1cc(S(=O)(=O)N2CCC[C@@H]2c2ccc(F)cc2)cc(C)c1F = 110

For the next question, use this compound.
Q: GET /values?readout=IC50&item= `COC[C@@H]1CC[C@H](c2ccc(F)cc2)N1S(=O)(=O)c1cc(C)c(F)c(C)c1`
A: 270
